The following molecules are shown together with reported AUC values.
assay: Pharmacokinetic property (Area under curve); assay type: ADME
parameter.measured: AUC (µM·h)

> print(dat)
                           smiles.structure  quantitative.readout
1  Cc1nc(N)ccc1CNC(=O)Cn1c(C)cc2c(c1=O)NCN(CC1CC1)S2(=O)=O                  2.14
2  Cc1nc(N)ccc1CNC(=O)Cn1c(C)cc(S(=O)(=O)CC2CCC2)c(N)c1=O                  2.58
3  Cc1nc(N)ccc1CNC(=O)Cn1c(C)cc(S(=O)(=O)CC2CC2)c(N)c1=O                   0.8
